src = PubChem BioAssay (NCI)

Assay: NCI Yeast Anticancer Drug Screen. Data for the rad14 strain (AID 159);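 also: 0% = growth of vehicle-treated control cultures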
Conditions: S. cerevisiae rad14 strain growth inhibition; at 33.0 µM; stronger effect = higher value
The panel holds about 79,000 compounds, 15% with a hit somewhere; the sample as a whole holds those more often.
Rule: growth inhibition of 30% or more gives true; anything lower gives false.

>>> cat("COc1cc(O)c(O)c(C(C)(C)C)c1")
"false"

Q: Confirm if growth inhibition reported for the molecule CN(C)c1nc(=Nc2cccc(Cl)c2)ss1 is 30% or above.
A: true

Q: Confirm if growth inhibition reported for the molecule O=C1C=C(Cl)C(=O)N1c1cccc(Cl)c1 is 30% or above.
A: true

====

Assay: NCI Yeast Anticancer Drug Screen. Data for the mlh1 strain (AID 171);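 also: 0% = growth of vehicle-treated control cultures of the same strain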
Conditions: S. cerevisiae mlh1 strain growth inhibition; at 3.7 µM; stronger effect = higher value
The panel holds about 79,000 compounds, 15% with a hit somewhere; the sample as a whole holds those more often.
# growth inhibition values compiled below
Record the value in %, omitting the unit from your answer.

Guide cases for growth inhibition, answers given:
>>> value_reported("OC1(c2ccccc2)CCCc2ccc(Cl)cc21 (stereo not drawn)")
3
>>> value_reported("CC(C)/C(Cl)=N\\OC(=O)Nc1ccc(F)cc1F")
6
>>> value_reported("CNC(=O)OCc1c(COC(=O)NC)c(-c2ccc(Cl)c(Cl)c2)n2c1SCC2")
-2
>>> value_reported("N#CNC(N)=Nc1cc2ccccc2c2ccccc12")
50
>>> value_reported("CC(O)=NC(Cc1ccc2ccccc2c1)C(O)=NC(Cc1ccc(Cl)cc1)C(O)=NC(Cc1c[nH]c2ccccc12)C(O)=NC(CO)C(O)=NC(Cc1ccc(O)cc1)C(O)=NC(CCCN=C(N)N)C(O)=NC(CC(C)C)C(O)=NC(CCCN=C(N)N)C(=O)N1CCCC1C(O)=NC(C)C(=N)O (stereo not drawn)")
-4

Data point: Cc1ccc(S/C(=C\C(=O)O)c2ccccc2)cc1 ; growth inhibition = 0

Data point: CCOc1ccc(NC(=O)C2=C(C)NC(C)=C(C(=O)Nc3ccc(OCC)cc3)C2c2cccc([N+](=O)[O-])c2)cc1 ; growth inhibition = -1

Data point: COc1cc([C@@H]2c3cc4c(cc3[C@@H](Nc3ccc(NC(=O)c5cc([N+](=O)[O-])cn5C)cc3)[C@H]3COC(=O)[C@H]23)OCO4)cc(OC)c1O ; growth inhibition = 5

====

Assay: NCI Yeast Anticancer Drug Screen. Data for the cln2 rad14 strain (AID 165);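 also: 0% = growth equal to vehicle treated cultures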
Conditions: S. cerevisiae cln2 rad14 strain, at 5.0 µM (retest, dose inferred, filed as 0.5), stronger effect = higher value
About 79,000 compounds went through this panel and 15% of them were active in at least one assay; those are over-represented in the sample as a whole.
property: growth inhibition (%)
Record the value in %, omitting the unit from your answer.

>>> value_reported("NC(=O)c1c([N+](=O)[O-])cc(C(F)(F)F)cc1[N+](=O)[O-]")
8
>>> value_reported("O=C1C=C(Cl)C(=O)C(c2ccc(Cl)cc2)=C1")
24
>>> value_reported("O=C(c1ccc([N+](=O)[O-])cc1)C1N=NCC1c1ccccc1 (centres undefined)")
5
>>> value_reported("CC(=O)SC(C[N+](=O)[O-])c1ccccc1 (centres undefined)")
-20
>>> value_reported("COC(=O)CC1CCc2c(ccc3ccccc23)C1(C)C(=O)OC (centres undefined)")
-3

Data point: CCOC(=O)COc1c(OC)cc(C2C3=C(COC3=O)Oc3cc4c(cc32)OCO4)cc1OC (centres undefined) ; growth inhibition = -1

Data point: CC(C)CCCC(C)C1CCC2C3CCC4=CC(=O)/C(=C\O)CC4(C)C3CCC12C (centres undefined) ; growth inhibition = 0

Data point: S=c1[nH]c2cc3ccccc3cc2[nH]1 ; growth inhibition = 34

Data point: Cc1c(C)c(C)c(CSC(=N)N)c(C)c1C ; growth inhibition = 8

====

Experiment: NCI Yeast Anticancer Drug Screen. Data for the rad50EPP+ strain (AID 151);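 also: 0% = growth of vehicle-treated control cultures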
Conditions: S. cerevisiae rad50 mutant strain, at 100.0 µM
Compounds without any hit were thinned out: in the full panel of roughly 79,000, 15% have a hit. The source made the active and inactive calls. No stated cut-off is given here; in the data, active means growth inhibition above about 70%; inactive means the rest.
Returns: one label drawn from 1 for active, -1 for inactive

Q: Could you kindly confirm the outcome this assay logged for Cn1c(-c2ccc(/C=N\N3CCN(/N=C/c4ccc(-c5c[n+]6ccccc6n5C)cc4)CC3)cc2)c[n+]2ccccc12 ?
A: -1

Q: Could you kindly confirm the outcome this assay logged for O=C(O)CNC(=S)Nc1ccccc1 ?
A: -1

Q: Could you kindly confirm the outcome this assay logged for CN(C)[C@@H]1C(=O)C(C(N)=O)=C(O)[C@@]2(O)C(=O)C3=C(O)c4c(O)cccc4C[C@H]3C[C@@H]12 ?
A: -1

Q: Could you kindly confirm the outcome this assay logged for C[C@]12CC[C@H](O)CC1=CC[C@@H]1C2CC[C@]2(C)C(=O)NC(=O)CC12 (some centres undefined) ?
A: 1

Q: Could you kindly confirm the outcome this assay logged for COc1cccc2c1C(=O)c1c(O)c3c(c(O)c1C2=O)C[C@@](O)(C(C)=O)C[C@@H]3OC1CC(OC(C)=O)C(OC(C)=O)C(C)O1 (some centres undefined) ?
A: -1

Q: Could you kindly confirm the outcome this assay logged for O=c1[nH]c2ccc(Cl)cc2o1 ?
A: -1

====

Experiment: NCI Yeast Anticancer Drug Screen. Data for the mlh1 strain (AID 171);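 also: 0% = growth of vehicle-treated control cultures of the same strain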
Details: S. cerevisiae mlh1 strain growth inhibition; at 11.0 µM; stronger effect = higher value
Compounds without any hit were thinned out: in the full panel of roughly 79,000, 15% have a hit. The source made the active and inactive calls. No stated cut-off is given here; in the data, active means growth inhibition above about 70%; inactive means the rest.
# growth inhibition values compiled below

>>> value_reported("CC(=O)Nc1ccc2c(c1)-c1ccccc1C2=O")
"1% (inactive)"
>>> value_reported("CCOC(=O)c1[nH]n(-c2ccccc2)c(=O)c1C=NC(=S)C(N)=S")
"43% (inactive)"
>>> value_reported("COc1oc(C(=O)NC2CCCCC2)c(-c2ccc(Cl)cc2)c1S(=O)(=O)c1ccccc1")
"41% (inactive)"
>>> value_reported("O=C1CSC(c2cccc(Cl)c2)N1c1ccc(-c2ccc(-n3c(-c4ccccc4)nc4ccccc4c3=O)cc2)cc1 (configuration not stated)")
"7% (inactive)"
>>> value_reported("CCCCc1nnc(NS(=O)(=O)c2ccc(C)cc2)s1")
"-24% (inactive)"

Data point: CN(C)c1ccc(N=Nc2ccncc2)cc1 ; growth inhibition = 29% (inactive)

Data point: CCCCCOC(=S)SC(=O)OCC ; growth inhibition = 14% (inactive)

Data point: O=C(NCCCNCCN1C(=O)c2cccc3cc([N+](=O)[O-])cc(c23)C1=O)c1cc(-c2ccccc2)nc2ccccc12 ; growth inhibition = 1% (inactive)

Data point: CCOc1ccc(NC(=O)C2=C(C)NC(C)=C(C(=O)Nc3ccc(OCC)cc3)C2c2cccc([N+](=O)[O-])c2)cc1 ; growth inhibition = 1% (inactive)

Data point: CN(C)C=NC1CCC(C(C)(C)C)CC1 (configuration not stated) ; growth inhibition = 47% (inactive)

Data point: Cc1cc(C(C)(C)C)c(OCCCN2CCOCC2)c(C(C)(C)C)c1 ; growth inhibition = -3% (inactive)

Data point: O=C1Nc2ccccc2/C1=C/c1ccccc1 ; growth inhibition = -5% (inactive)

Data point: O=c1[nH]c(-c2ccccc2)nc2c1sc1nc3ccccc3n12 ; growth inhibition = -47% (inactive)

Data point: NNC(=O)CCc1cc2ccccc2c2ccccc12 ; growth inhibition = -3% (inactive)

Data point: CCc1ccc2c(c1)N(CC(C)CN(C)C)c1ccccc1S2 (configuration not stated) ; growth inhibition = -5% (inactive)

Data point: COC(=O)/C=C(/C(=O)OC)C(Cl)(Cl)Cl ; growth inhibition = 5% (inactive)

====

Assay: NCI Yeast Anticancer Drug Screen. Data for the rad50 strain (AID 155);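 also: 0% = growth of vehicle-only cultures of the same strain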
Settings: S. cerevisiae rad50 strain growth inhibition; at 33.0 µM; stronger effect = higher value
Compounds without any hit were thinned out: in the full panel of roughly 79,000, 15% have a hit.
# growth inhibition values compiled below
Record the value in %, omitting the unit from your answer.

>>> value_reported("O=C(O)Cc1cc(F)ccc1C(=O)O")
12

// next entry
Data point: O=C1C=C(Cl)C(=O)C(c2ccc(Cl)cc2)=C1 ; growth inhibition = 97

====

# growth inhibition values compiled below
Assay: NCI Yeast Anticancer Drug Screen. Data for the mlh1 rad18 strain (AID 175)
Conditions: S. cerevisiae mlh1 rad18 strain growth inhibition; at 5.0 µM (retest, dose inferred, filed as 0.5); stronger effect = higher value
Compounds without any hit were thinned out: in the full panel of roughly 79,000, 15% have a hit.
Record the value in %, omitting the unit from your answer.

Guide cases for growth inhibition, answers given:
>>> value_reported("CCCCCCCCCCCCCCCCOP(=O)(O)OCC(N)C(=O)O (stereo not drawn)")
-26
>>> value_reported("CC(O)=NC(Cc1ccc2ccccc2c1)C(O)=NC(Cc1ccc(Cl)cc1)C(O)=NC(Cc1c[nH]c2ccccc12)C(O)=NC(CO)C(O)=NC(Cc1ccc(O)cc1)C(O)=NC(CCCN=C(N)N)C(O)=NC(CC(C)C)C(O)=NC(CCCN=C(N)N)C(=O)N1CCCC1C(O)=NC(C)C(=N)O (stereo not drawn)")
52

Data point: CC[N+]1(C)CCC(O)(c2ccc(OC)cc2)C(C(=O)c2ccc(OC)cc2)C1 (stereo not drawn) ; growth inhibition = 25
